Hi there, I'd appreciate the recorded relative viability for every entry that follows.
- System: NCI-H2126
- measurement-description: relative viability (nuclei count vs DMSO), 5 days (fraction); higher = more cells survive
- cond: first compound 0.4 µM
Numbers only.

Use these answered entries as a reference point.
{"molecule": "COc1cc(N2CCC(C(N)=O)CC2)ccc1Nc1nc(N)c(Cl)c(Nc2ccccc2S(=O)(=O)C(C)C)n1 [HG-5-88-01] + Cc1nc(NC(=O)N2CCC[C@H]2C(N)=O)sc1-c1ccnc(C(C)(C)C(F)(F)F)c1 [Alpelisib] (partner 2 µM)", "val": 0.774}
{"molecule": "Clc1ccc(Nc2nnc(Cc3ccncc3)c3ccccc23)cc1 [Vatalanib] + Cc1nc(NC(=O)N2CCC[C@H]2C(N)=O)sc1-c1ccnc(C(C)(C)C(F)(F)F)c1 [Alpelisib] (partner 2 µM)", "val": 0.761}

Need relative viability for each of these molecules.
1. COc1cc(N2CCC(C(N)=O)CC2)ccc1Nc1nc(N)c(Cl)c(Nc2ccccc2S(=O)(=O)C(C)C)n1 [HG-5-88-01] + O=C(c1cc(Cc2n[nH]c(=O)c3ccccc23)ccc1F)N1CCN(C(=O)C2CC2)CC1 [Olaparib] (partner 8 µM)
2. C[C@@H]1CN(CC(=O)Nc2ccc3c(c2)Cc2cccc(-c4cc(=O)cc(N5CCOCC5)o4)c2S3)C[C@H](C)O1 + N=C(N)NC(=N)NCCc1ccccc1 [Phenformin] (partner 250 µM)
3. C[C@@H]1CN(CC(=O)Nc2ccc3c(c2)Cc2cccc(-c4cc(=O)cc(N5CCOCC5)o4)c2S3)C[C@H](C)O1 + CS(=O)(=O)N1CCN(Cc2cc3nc(-c4cccc5[nH]ncc45)nc(N4CCOCC4)c3s2)CC1 [Pictilisib] (partner 1 µM)

1: 0.939; 2: 0.531; 3: 0.459
